# assay target: Poly(ADP-ribose) glycohydrolase (Homo sapiens, UniProt Q86W56)
# Sequence (Q86W56 whole entry): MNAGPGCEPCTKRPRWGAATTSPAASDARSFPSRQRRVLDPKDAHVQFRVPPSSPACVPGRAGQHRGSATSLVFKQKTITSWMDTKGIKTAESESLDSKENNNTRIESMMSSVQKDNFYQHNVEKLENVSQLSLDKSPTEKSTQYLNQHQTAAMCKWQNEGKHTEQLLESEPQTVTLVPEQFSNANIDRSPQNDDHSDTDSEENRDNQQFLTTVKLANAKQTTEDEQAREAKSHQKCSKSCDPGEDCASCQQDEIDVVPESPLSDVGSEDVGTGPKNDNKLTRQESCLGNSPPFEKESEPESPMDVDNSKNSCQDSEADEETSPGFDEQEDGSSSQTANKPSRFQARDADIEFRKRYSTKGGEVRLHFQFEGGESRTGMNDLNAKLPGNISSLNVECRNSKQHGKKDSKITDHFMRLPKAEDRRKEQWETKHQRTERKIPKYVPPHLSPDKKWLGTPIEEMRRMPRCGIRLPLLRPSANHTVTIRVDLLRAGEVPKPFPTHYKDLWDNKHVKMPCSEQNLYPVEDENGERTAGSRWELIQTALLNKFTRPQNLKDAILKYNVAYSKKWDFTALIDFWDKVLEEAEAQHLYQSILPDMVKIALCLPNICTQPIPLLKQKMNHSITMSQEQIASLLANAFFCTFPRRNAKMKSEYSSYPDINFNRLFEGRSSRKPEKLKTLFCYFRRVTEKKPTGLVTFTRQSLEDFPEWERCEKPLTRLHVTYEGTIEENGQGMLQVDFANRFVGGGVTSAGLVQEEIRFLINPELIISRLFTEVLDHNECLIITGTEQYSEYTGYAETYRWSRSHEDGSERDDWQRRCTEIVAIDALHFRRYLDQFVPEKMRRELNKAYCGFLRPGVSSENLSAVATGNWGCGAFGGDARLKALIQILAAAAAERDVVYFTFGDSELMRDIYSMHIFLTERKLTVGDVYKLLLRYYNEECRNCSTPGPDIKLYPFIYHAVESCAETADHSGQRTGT
# assay summary: Inhibition of recombinant human PARG assessed as mono(ADP-R) release using PAR as substrate measured after 15 mins by HPLC analysis
Reported values of IC50 for individual entries

compound: O=C(O)c1c(Cl)ccc(Cl)c1-c1c2cc(I)c(=O)c(I)c-2oc2c(I)c(O)c(I)cc12
IC50: 61.4 µM
//
compound: O=C(O)c1c(Cl)c(Cl)c(Cl)c(Cl)c1-c1c2cc(I)c(=O)c(I)c-2oc2c(I)c(O)c(I)cc12 [ROSE BENGAL FREE ACID]
IC50: 29.7 µM
//
compound: O=C(O)c1ccccc1-c1c2cc(Br)c(=O)c(Br)c-2oc2c(Br)c(O)c(Br)cc12
IC50: > 300 µM
//
compound: O=C(O)c1ccccc1-c1c2cc(I)c(=O)c(I)c-2oc2c(I)c(O)c(I)cc12
IC50: 120 µM
//
compound: O=C(O)c1c(Cl)c(Cl)c(Cl)c(Cl)c1-c1c2cc(Br)c(=O)c(Br)c-2oc2c(Br)c(O)c(Br)cc12
IC50: 106 µM

Origin of values: ChEMBL document CHEMBL4616596
